# Test system: HIV-IIIb
# protocolDetails: Test A: Antiviral Assay in MT4 Cells
# Assay type: cell-based
# conditions: Table 1; MT-4 cells infected with HIV-IIIb, 5 days of incubation, CellTiter-Glo; read-out: EC50
Here the recorded EC50 is given for each entry.
assayEndpoint: EC50

Cc1cc2nc(N3CCCC3)sc2c(-c2ccc3c4c(ccnc24)CCO3)c1[C@H](OC(C)(C)C)C(=O)O (atropisomer, axis not shown) [Compound 51]	5250 nM
Cc1cc2nc(N3CC(F)(F)C3)sc2c(-c2ccc3c4c(ccnc24)CCO3)c1[C@H](OC(C)(C)C)C(=O)O (atropisomer, axis not shown) [Compound 52]	53.4 nM
Cc1cc2nc(-c3ccc4c(c3)c(-c3cccnc3)nn4C)sc2c(-c2ccc(Cl)cc2)c1[C@H](OC(C)(C)C)C(=O)O	726 nM
